Parameter: pEC50. Scope: all listed entries.
# target.desc: human TGR5 (Homo sapiens)
# Sequence (Q8TDU6 whole entry): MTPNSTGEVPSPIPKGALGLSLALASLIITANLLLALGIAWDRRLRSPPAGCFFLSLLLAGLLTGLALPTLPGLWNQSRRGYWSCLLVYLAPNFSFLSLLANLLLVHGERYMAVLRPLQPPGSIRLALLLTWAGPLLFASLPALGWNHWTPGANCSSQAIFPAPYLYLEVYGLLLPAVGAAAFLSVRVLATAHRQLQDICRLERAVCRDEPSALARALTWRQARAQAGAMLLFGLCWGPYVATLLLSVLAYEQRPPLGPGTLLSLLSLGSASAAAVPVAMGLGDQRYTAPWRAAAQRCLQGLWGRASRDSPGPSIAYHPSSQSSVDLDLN
# test.protocol: cAMP production assay in HEK293 cells stably expressing TGR5 (LANCE TR-FRET)
# assay.setup: 30 minutes stimulation, 1 mM IBMX, read-out: cAMP Production in 293-TGR5 Cells
pEC50: −log10 of the molar value.

What value of measured pEC50 is listed for O=c1cc2nc(-c3ccsc3)c(CNCCc3ccc(Br)cc3)cc2c[nH]1 [Example 10] ? < 5.00

What value of measured pEC50 is listed for FC(F)(F)c1ccc(CNCc2cc3ccsc3nc2-c2ccsc2)cc1 [Example 7] ? ≥ 5.00

What value of measured pEC50 is listed for CC(C)n1ncc2cc(CNCc3ccc(C(F)(F)F)cc3)c(-c3ccsc3)nc21 [Example 1] ? ≥ 5.00

What value of measured pEC50 is listed for Cc1nn(C)c2nc(-c3ccsc3)c(CNCCc3ccc(Br)cc3)cc12 [Example 3] ? ≥ 5.00

What value of measured pEC50 is listed for COc1ccc2cc(CNCCc3ccc(Br)cc3)c(-c3ccsc3)nc2n1 [Example 11] ? ≥ 5.00

What value of measured pEC50 is listed for Brc1ccc(CCNCc2cc3sccc3nc2-c2ccsc2)cc1 [Example 5] ? ≥ 5.00

What value of measured pEC50 is listed for Brc1ccc(CCNCc2cc3ccsc3nc2-c2ccsc2)cc1 [Example 6] ? ≥ 5.00

What value of measured pEC50 is listed for CC(C)n1ncc2cc(CNCCc3ccc(Br)cc3)c(-c3ccsc3)nc21 [Example 2] ? ≥ 5.00

What value of measured pEC50 is listed for COc1cc2nc(-c3ccsc3)c(CNCCc3ccc(Br)cc3)cc2cn1 [Example 9] ? ≥ 5.00

What value of measured pEC50 is listed for O=c1ccc2cc(CNCCc3ccc(Br)cc3)c(-c3ccsc3)nc2[nH]1 [Example 12] ? ≥ 5.00

What value of measured pEC50 is listed for Brc1ccc(CCNCc2cc3ccncc3nc2-c2ccsc2)cc1 [Example 8] ? ≥ 5.00

What value of measured pEC50 is listed for Cc1nn(C)c2nc(-c3ccsc3)c(CNCc3ccc(C(F)(F)F)cc3)cc12 [Example 4] ? < 5.00

These data points were gathered from patent US20090054304A1.
